System: NCI-H226
test.description: NCI tumour cell line growth inhibition, 48 h
The source made the active and inactive calls. Rule as the data show it: active = GI50 up to about 1.1 µM and inactive = higher.
Outcomes: Y = active, N = inactive

compound: Oc1nc2cc(Cl)ccc2nc1/C(=N\Nc1ccccc1)C(O)c1ccc2c(c1)OCO2 (centres undefined)
qualitative.label: N

compound: CCn1cc(C(=O)O)c(=O)c2cc(F)c(N3CCN(CN4C(=O)/C(=N\NC(=O)c5ccncc5)c5cc(Cl)ccc54)CC3)cc21
qualitative.label: N

compound: C/C(CC(=O)Nc1ccc(NC(=O)/C(C)=N/NS(=O)(=O)c2ccc(C)cc2)cc1)=N\NS(=O)(=O)c1ccc(C)cc1
qualitative.label: N

compound: COc1cc2c(c(OC)c1OC)-c1ccc(SC)cc1C(=O)CC2
qualitative.label: Y

---

System: HCC 2998
test.description: NCI tumour cell line growth inhibition, 48 h
Calls of active or inactive are those of the source. Cut-off read from the data, not from the text of the source: active = GI50 up to about 1.1 µM and inactive = higher.
Labels: active, inactive

compound: CCN(CC)CCC(=O)/C=C/c1ccc(Cl)c(Cl)c1
target: HCC 2998
qualitative.label: inactive
//
compound: CCCCCCCCC/C=C1/CC(CO)(COC(=O)CC(C(C)C)C(C)C)OC1=O (stereo unspecified)
target: HCC 2998
qualitative.label: inactive
//
compound: C=C1C/C(=C/C)C(=O)O[C@@H]2CCN3CC=C(COC(=O)[C@]1(C)O)[C@H]23 [SENECIPHYLLINE]
target: HCC 2998
qualitative.label: inactive
//
compound: COc1ncnc2c(NC3OC(CO)C(O)C3O)ncnc12 (stereo unspecified)
target: HCC 2998
qualitative.label: inactive
//
compound: O=c1/c(=C/c2ccccc2[N+](=O)[O-])sc2nc3ccccc3n12
target: HCC 2998
qualitative.label: inactive
//
compound: N#CC(C(=O)C(=O)Nc1ccc(Cl)cc1)c1ccccc1 (stereo unspecified)
target: HCC 2998
qualitative.label: inactive
//
compound: CC1=C(C(=O)N(C(C)C)C(C)C)CC(C(=O)N(C(C)C)C(C)C)=C(C)N1
target: HCC 2998
qualitative.label: inactive
//
compound: COC(=O)Cc1nc2ccccc2o1
target: HCC 2998
qualitative.label: inactive
//
compound: N=C(N)NS(=O)(=O)c1ccc(NC(=O)c2cccc3c(Nc4ccc(S(N)(=O)=O)cc4)c4ccccc4nc23)cc1
target: HCC 2998
qualitative.label: inactive
//
compound: CCCCCCCCCCCC[C@@H](O)[C@H]1CC[C@H]([C@H](O)CCCC[C@H](O)CCCCC[C@@H](O)CC2=C[C@H](C)OC2=O)O1
target: HCC 2998
qualitative.label: inactive
//
compound: Cc1cc2c(cc1C)[n+]([O-])c(C(=O)C/C(=N/NC(=O)c1ccccc1O)C(=O)Nc1ccccc1C(C)C)c(C)[n+]2[O-]
target: HCC 2998
qualitative.label: inactive
//
compound: ClCCCN(CCCCl)c1ccc(/C=N/c2cccc(Cl)c2)cc1
target: HCC 2998
qualitative.label: inactive
//
compound: N[C@@H]1C[C@H](N)c2c(Cl)sc(Cl)c21
target: HCC 2998
qualitative.label: inactive
//
compound: O=C(Cc1nc2ccccc2o1)C(=O)Nc1cccc(Cl)c1
target: HCC 2998
qualitative.label: inactive
//
compound: CC(=O)OCC1OC(n2c(=O)n(-c3ccccc3)c(=O)c3cc(Br)cc(Br)c32)C(OC(C)=O)C(OC(C)=O)C1OC(C)=O (stereo unspecified)
target: HCC 2998
qualitative.label: inactive
//
compound: C=C1C(C[C@@H]2O[C@H]3C[C@H]4O[C@@]5(C[C@@H]6O[C@]7(C[C@H](C)[C@@H]8O[C@@H]9CC(C(O)CO)O[C@@H]9C[C@@H]8O7)C[C@H](C)[C@@H]6O5)C[C@H]4O[C@H]3[C@H](C)[C@H]2O)O[C@@H](CC[C@@H]2O[C@@H](CC[C@@]34CC5O[C@H]6C(O[C@H]7CC[C@H](CC(=O)OC)O[C@@H]7[C@@H]6O3)[C@H]5O4)CC2=C)C[C@H]1C (stereo partly specified)
target: HCC 2998
qualitative.label: active
//
compound: CC(=O)NCCC1CN(C(=O)/C=C\C#C[Si](C)(C)C)c2ccccc21 (stereo unspecified)
target: HCC 2998
qualitative.label: inactive
//
compound: CC(CC(=O)N1C2CC3CCC2(CS1(=O)=O)C3(C)C)[Si](C)(C)C (stereo unspecified)
target: HCC 2998
qualitative.label: inactive
//
compound: CC(C)(C)OC(=O)Cn1ncn(NC(=O)Cc2ccccc2)c1=O
target: HCC 2998
qualitative.label: inactive
//
compound: OC1(c2ccccc2)CSC2=Nc3ccccc3C3CCN1N23 (stereo unspecified)
target: HCC 2998
qualitative.label: inactive
//
compound: Nc1cc2c(c3ccccc13)C(CCl)CN2C(=O)c1cc2cc(NC(=O)Nc3ccc4[nH]c(C(=O)N5CC(CCl)c6c5cc(N)c5ccccc65)cc4c3)ccc2[nH]1 (stereo unspecified)
target: HCC 2998
qualitative.label: active
//
compound: O=C1OC(=O)C2CCCC3CCCC1C32 (stereo unspecified)
target: HCC 2998
qualitative.label: inactive
//
compound: NC(=O)/C=C/NC(=O)/C=N\O
target: HCC 2998
qualitative.label: inactive
//
compound: CN(C)CCCNC(=O)c1cn2c(ccc3sc4ccccc4c(=O)c32)n1
target: HCC 2998
qualitative.label: inactive
//
compound: CC(=O)c1c(-c2cccc3ccccc23)c(C#N)c(=S)n(C2OC(CO)C(O)C(O)C2O)c1C (stereo unspecified)
target: HCC 2998
qualitative.label: inactive
//
compound: COc1ccc(N2C(=O)[C@@H]3[C@@H]4CC(C)CC[C@@H]4c4c([nH]c5ccccc45)[C@@H]3C2=O)cc1 (stereo partly specified)
target: HCC 2998
qualitative.label: inactive
//
compound: COc1ccc(OC)c2c1C(=O)C(O)=C(Cl)C2=O
target: HCC 2998
qualitative.label: inactive
//
compound: O=C(Nc1ccc(S(=O)(=O)/N=c2\ncccn2C(=O)C(C(F)(F)F)C(F)(F)F)cc1)C(C(F)(F)F)C(F)(F)F
target: HCC 2998
qualitative.label: inactive
//
compound: CCOC(=O)/C(=C\c1ccnc2ccccc12)P(=O)(OCC)OCC
target: HCC 2998
qualitative.label: inactive
//
compound: CC(=O)Oc1ccc(N2C(=O)C3c4[nH]c5ccccc5c4C4CCC(C(C)(C)C)CC4C3C2=O)cc1 (stereo unspecified)
target: HCC 2998
qualitative.label: inactive
//
compound: CC(=O)c1cnc2oc3ccc(O)cc3c2c1-c1ccccc1
target: HCC 2998
qualitative.label: inactive
//
compound: NC12CC3CC(C1)CC(Cl)(C3)C2
target: HCC 2998
qualitative.label: inactive
//
compound: COC(=O)C1C(=O)N(C)C(=O)N2CCCC12 (stereo unspecified)
target: HCC 2998
qualitative.label: inactive
//
compound: Cc1ccc(Nc2cccc3c2C(=O)c2cccc(Nc4ccc(C)cc4S(=O)(=O)O)c2C3=O)c(S(=O)(=O)O)c1
target: HCC 2998
qualitative.label: inactive
//
compound: O=C(Nc1c(Cl)cc([N+](=O)[O-])cc1Cl)C(=O)C(C1OC(=O)c2ccccc21)[N+](=O)[O-] (stereo unspecified)
target: HCC 2998
qualitative.label: inactive
//
compound: Cc1ccc2nc(SCC(=O)N/N=C3\C(=O)Nc4ccccc43)n(-c3ccccc3)c(=O)c2c1
target: HCC 2998
qualitative.label: inactive
